Measured values drawn from patent US10981932B2 for this set.

Exercise: state measured EC50 for each of the molecules provided.
Tested on: SUDHL10
Assay: Induction of caspase-3/7 activity (Caspase-Glo 3/7), SUDHL10
Type: cell-based
Details: Homo sapiens, SU-DHL10, 3 h, caspase-3/7 induction, SUDHL10 cells, 3 h treatment; median
Text: Induction of Caspase-317 Activity Upon Treatment of Cells with Selected Compounds The BH3-domain of MCL-1 sequesters pro-apoptotic proteins, thereby inhibiting apoptosis. In contrast, MCL-1 inhibitors are expected to antagonize this effect leading to an increase in apoptosis, which can be determined by measuring the activity of caspase-3/7. […] For the evaluation of the results, the background measured with “medium-only” was subtracted from all other values. […]
Answer format: numeric, µM implied, no suffix.

Incoming: Please state recorded EC50 (tested on SUDHL10) of CCc1c2c(nn1C)CN(C)CCCn1c(C(=O)O)c(CCCOc3cccc4ccccc34)c3cccc-2c31 (racemic)
Outgoing: 7.3

Incoming: Please state recorded EC50 (tested on SUDHL10) of COCc1c2c(nn1C)COCCCCn1c(C(=O)O)c(CCCOc3cccc4c3CCCC4)c3cccc-2c31 (racemic)
Outgoing: 23.9

Incoming: Please state recorded EC50 (tested on SUDHL10) of CN1CCCn2c(C(=O)O)c(CCCOc3cccc4ccccc34)c3cccc(c32)-c2c(COc3ccc(C4CCOCC4)cc3)nn(C)c2C1 (single isomer, unassigned)
Outgoing: 17.3

Incoming: Please state recorded EC50 (tested on SUDHL10) of CCc1nn(C)c2c1-c1c(C)ccc3c(C(C)CCOc4cccc5ccccc45)c(C(=O)O)n(c13)CCCCOC2 (single isomer, unassigned) [Example 272]
Outgoing: 23.8

Incoming: Please state recorded EC50 (tested on SUDHL10) of COCc1nn(C)c2c1-c1cccc3c(CCCOc4cccc5ccccc45)c(C(=O)O)n(c13)CCCCOC2 (single isomer, unassigned; enantiomer 1)
Outgoing: 28.6

Incoming: Please state recorded EC50 (tested on SUDHL10) of Cc1ccc2c(CCCOc3cccc4ccccc34)c(C(=O)O)n3c2c1-c1c(C)nn(C)c1COCCC3 (single isomer, unassigned; enantiomer 1)
Outgoing: 11.1

Incoming: Please state recorded EC50 (tested on SUDHL10) of CN1CCCCn2c(C(=O)O)c(CCCOc3cccc4ccccc34)c3cccc(c32)-c2c(/C=C/F)nn(C)c2C1 (racemic)
Outgoing: 19.6

Incoming: Please state recorded EC50 (tested on SUDHL10) of Cc1c2c(nn1CCN1CCOCC1)COCCCCn1c(C(=O)O)c(CCCOc3cccc4ccccc34)c3cccc-2c31 (racemic)
Outgoing: 5.67

Incoming: Please state recorded EC50 (tested on SUDHL10) of COCc1nn(C)c2c1-c1cccc3c(CCCOc4cccc5ccccc45)c(C(=O)O)n(c13)CCCCN(C)C2 (racemic)
Outgoing: 5.89

Incoming: Please state recorded EC50 (tested on SUDHL10) of CCc1c2c(nn1CCN1CCOCC1)COCCCCn1c(C(=O)O)c(CCCOc3cccc4ccccc34)c3cccc-2c31 (racemic)
Outgoing: 8.57

Incoming: Please state recorded EC50 (tested on SUDHL10) of CN1CCCn2c(C(=O)O)c(CCCOc3cccc4ccccc34)c3cccc(c32)-c2c(CNCC(F)(F)F)nn(C)c2C1 (single isomer, unassigned; enantiomer 1) [Example 130]
Outgoing: 24.4

Incoming: Please state recorded EC50 (tested on SUDHL10) of Cc1c2c(nn1C)COCCCCn1c(C(=O)O)c(CCCOc3cccc4cc(F)ccc34)c3cccc-2c31 (racemic)
Outgoing: 3.29
